# studySystem: human CRTH2 (Homo sapiens, UniProt Q9Y5Y4)
# Sequence (Q9Y5Y4 whole entry): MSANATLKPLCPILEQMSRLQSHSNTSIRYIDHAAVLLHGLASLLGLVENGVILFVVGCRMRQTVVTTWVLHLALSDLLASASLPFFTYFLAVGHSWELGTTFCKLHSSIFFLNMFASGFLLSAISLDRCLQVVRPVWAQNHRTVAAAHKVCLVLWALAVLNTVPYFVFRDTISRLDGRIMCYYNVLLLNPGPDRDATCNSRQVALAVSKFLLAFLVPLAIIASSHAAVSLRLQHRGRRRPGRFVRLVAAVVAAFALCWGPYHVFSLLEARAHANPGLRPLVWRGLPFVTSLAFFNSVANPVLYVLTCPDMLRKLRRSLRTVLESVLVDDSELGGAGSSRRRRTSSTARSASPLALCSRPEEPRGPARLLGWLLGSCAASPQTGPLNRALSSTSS
# assayDetails: Human CRTH2 receptor binding assay (Assay 2)
# statedConditions: binding to puromycin-resistant human CRTH2 L1.2 transfectants
# Experimental: Human CRTH2 cDNA was amplified from human eosinophil cDNA with gene specific primers containing restriction sites for cloning into pEAK vector (Edge Bio Systems). The human CRTH2 cDNA was cloned into the mammalian expression vector pEAK. This expression plasmid (40 μg) was transfected into L1.2 cells, at a cell density of 1×10^7 cells/500 μl, by using electroporation apparatus (Gene Pulser II, BioRad) at 250V/1,000 μF. […]
experimentalEndpoint: pKd
Value format note: pKd is -log10 of concentration (mol/L); just state the number.

Entry CCCCC[C@H](O)/C=C/[C@H]1C(=O)C[C@H](O)[C@@H]1C/C=C\CCCC(=O)O [[^3H]-labeled PGD2] has what pKd?
8.20
